# Test system: MOLT-4 leukemia
# test_name: NCI-60 one-dose screen, 48 h (100 = growth as untreated, 0 = no growth, -100 = all killed)
# stated_conditions: 10 µM unless noted
Compounds without any hit were thinned out: in the full panel of roughly 83,000, 20% have a hit.
So basically, if growth comes in under 40% it's y, and if it's 40% or more it's n.

{"chemical_smiles": "O=C(CCCn1c2c(sc3ccccc32)c(=O)n2nnc(-c3ccccc3)c12)NCCc1cnc[nH]1", "category": "n"}
{"chemical_smiles": "O=C(Nc1cccc(C(F)(F)F)c1)Nc1ccc(OCc2nnc(-c3ccccc3)o2)c(F)c1", "category": "y"}
{"chemical_smiles": "COc1ccc(OC)c(-c2ccc(-c3ccccc3N)c3[nH]c4ccccc4c23)c1", "category": "n"}
{"chemical_smiles": "Nc1c(C(=O)Nc2cccc(C(F)(F)F)c2)sc2nc3c(cc12)CCCCCC3", "category": "n"}
{"chemical_smiles": "Nc1nc(-c2cc3ccccc3o2)cc(=O)c(=O)[nH]1", "category": "n"}
{"chemical_smiles": "COc1cc(-c2nc(-c3nc4ccccc4[nH]3)cc3c2[nH]c2ccccc23)cc(OC)c1OC", "category": "n"}

Request: API: query returns whether the compound falls strictly under 40% in growth. Query: O=S(=O)(NCCCNc1cc(-c2cn(-c3ccccc3)nc2-c2cccc(O)c2)ccn1)c1cccc(F)c1
Result: y

Request: Follow-up entry: c1cncc(CNc2ccccc2-c2nnc(Nc3ccc4c(c3)OCCO4)o2)c1
Result: y

Request: Follow-up entry: CCN(CC)P(=O)(N(CC)CC)N(CCCSC/C=C(\C)CC/C=C(\C)CCC=C(C)C)CCCN1CCN(C)CC1
Result: n

###

# Tested on: NCI-H226 lung
# test_name: NCI-60 one-dose screen, 48 h (100 = growth as untreated, 0 = no growth, -100 = all killed)
# stated_conditions: 10 µM unless noted
Compounds without any hit were thinned out: in the full panel of roughly 83,000, 20% have a hit.
So basically, if growth comes in under 90% it's criterion met, and if it's 90% or more it's criterion not met.

{"compound": "CC[C@H](C)[C@@H]1NC(=O)[C@H]([C@@H](C)O)NC(=O)C(Cc2ccccc2)NC(=O)[C@@H]2CCCN2C(=O)C(C(C)C)NC(=O)C(Cc2ccccc2)NC(=O)CNC(=O)[C@@H]2CCCN2C1=O (stereo partly drawn)", "category": "criterion met"}
{"compound": "COc1cc(C(=O)OCCCCCCCCCCC[P+](c2ccccc2)(c2ccccc2)c2ccccc2)ccc1O", "category": "criterion met"}
{"compound": "Cc1cc2c(C(C)C)c(O)c(O)c(C=NCCCCCCC(=O)O)c2c(O)c1-c1c(C)cc2c(C(C)C)c(O)c(O)c(C=NCCCCCCC(=O)O)c2c1O", "category": "criterion met"}
{"compound": "CC(CCc1ccccc1)NC(=O)c1n[nH]c(=O)c2ccccc12 (stereo not drawn)", "category": "criterion not met"}
{"compound": "COc1ccc(C(=O)c2cc(OC)c(OC)c(OC)c2)cc1/C=C/C(=O)c1ccc(OC)c(OC)c1", "category": "criterion met"}

Request: API: query returns whether the compound falls strictly under 90% in growth. Query: Cc1nn(-c2ccc(Cl)cc2)c(=O)n1CCOc1ccccc1Cl
Result: criterion not met

Request: Follow-up entry: C=CCN=C1NC(=O)/C(=C/c2cc(C(C)(C)C)c(O)c(C(C)(C)C)c2)S1
Result: criterion not met

Request: Follow-up entry: O=c1[nH]c2ccccc2cc1-c1nnc(Cc2ccccc2)o1
Result: criterion met

Request: Follow-up entry: COc1ccc2c(c1)C=CC(C#N)N2C(=O)c1ccccc1 (stereo not drawn)
Result: criterion met

Request: Follow-up entry: COc1cc(CCn2nnc3c(NCCCCO)ncnc32)cc(OC)c1
Result: criterion not met

Request: Follow-up entry: CCOC(=O)C(Cc1ccccc1)n1c(O)c(C=Nc2ccc(C(=O)OCCN(CC)CC)cc2)sc1=O (stereo not drawn)
Result: criterion not met

Request: Follow-up entry: Oc1ccc(N=Cc2ccccc2)cc1
Result: criterion not met

Request: Follow-up entry: Nc1nc(Cl)c2c(ncn2Cc2ccc(CCl)cc2)n1
Result: criterion not met

Request: Follow-up entry: NS(=O)(=O)c1ccc(NCC(=O)Nc2ccc(-c3nc4ccccc4s3)cc2)cc1
Result: criterion met

Request: Follow-up entry: COc1ccc(/C=c2\sc3n(c2=O)C2C(NN=3)N(C)C(=O)N2C)cc1 (stereo not drawn)
Result: criterion not met

Request: Follow-up entry: COc1ccc(S(=O)(=O)NCCNc2nccc(-c3c(-c4ccccc4)nc4sccn34)n2)cc1
Result: criterion met
